procedure-details: Plasma concentration in mouse at 250 mg/kg, po QD for 7 days measured after 72 hrs by LC-MS/MS analysis
outcome-measure: concentration at 168 h (nM)
The reply should be a number in nM, with the unit left off.

Enquiry: Give the measured concentration at 168 h of CC(C)(C)n1nc(-c2ccc3cc(OC4CC4)ccc3c2)c(C(N)=O)c1N .
Return: 700

* * *

procedure-details: Inhibition of Cryptosporidium parvum CDPK1 assessed as reduction in ATP consumption using BioSyntide-2 substrate incubated for 90 mins by luciferase reporter gene assay
Just so you know, the groups by IC50 go like this: Low = under 2 nM, Mid = from 2 nM up to 4 nM, High = 4 nM and over

Enquiry: Lab note: which band did CC(C)(CCO)n1nc(-c2ccc3nc(OC4CC4)ccc3c2)c(C(N)=O)c1N land in?
Return: Mid

Enquiry: Thanks! And CCOc1ccc2cc(-c3nn(CC(C)(C)CO)c(N)c3C(N)=O)ccc2c1 ?
Return: High

Enquiry: Thanks! And CCOc1ccc2cc(-c3nn(CC4CC4)c(N)c3C(N)=O)ccc2c1 ?
Return: Low

Enquiry: Thanks! And CC(C)(C)n1nc(-c2ccc3cc(OC4CC4)ccc3c2)c(C(N)=O)c1N ?
Return: High

Enquiry: Thanks! And CCOc1ccc2cc(-c3nn(C(C)(C)CO)c(N)c3C(N)=O)ccc2n1 ?
Return: Mid

Enquiry: Thanks! And CC(C)(CO)n1nc(-c2ccc3cc(OC4CC4)ccc3c2)c(C(N)=O)c1N ?
Return: High

Enquiry: Thanks! And CC(C)(CO)n1nc(-c2cnc3cc(OC4CC4)ccc3c2)c(C(N)=O)c1N ?
Return: Low

* * *

procedure-details: Plasma concentration in mouse at 250 mg/kg, po QD for 5 days measured after 2 hrs by LC-MS/MS analysis
outcome-measure: concentration at 120 h
State the value with its unit after it.

Enquiry: Give the measured concentration at 120 h of CC(C)(C)n1nc(-c2ccc3cc(OC4CC4)ccc3c2)c(C(N)=O)c1N .
Return: 72.2 µM

* * *

Tested on: Cryptosporidium parvum
procedure-details: Antimicrobial activity against nano-luciferase-expressing Cryptosporidium parvum infected in IFN-gamma KO B6.129S7-Ifngtm1Ts/J mouse assessed as log reduction of infection at 60 mg/kg, po QD for 5 days beginning on day 6 post infection relative untreated control
measurement-parameters: time 5 day
Values of FC greater than or equal to 3 map to 1 (yes); values below map to 0 (no).

Enquiry: Decide: FC of CC(C)(CO)n1nc(-c2ccc3cc(OC4CC4)ccc3c2)c(C(N)=O)c1N >= 3?
Return: 1 (yes)

Enquiry: Thanks! And CC(CCO)n1nc(-c2ccc3cc(OC4CC4)ccc3c2)c(C(N)=O)c1N (configuration not stated) ?
Return: 1 (yes)

Enquiry: Thanks! And CCOc1ccc2cc(-c3nn(C(C)CCO)c(N)c3C(N)=O)ccc2c1 (configuration not stated) ?
Return: 0 (no)

Enquiry: Thanks! And CCOc1ccc2cc(-c3nn(C(C)(C)CO)c(N)c3C(N)=O)ccc2n1 ?
Return: 1 (yes)

Enquiry: Thanks! And CCOc1ccc2cc(-c3nn(CC(C)(C)CO)c(N)c3C(N)=O)ccc2c1 ?
Return: 0 (no)

Enquiry: Thanks! And CC(C)(C)n1nc(-c2ccc3cc(OC4CC4)ccc3c2)c(C(N)=O)c1N ?
Return: 1 (yes)

Enquiry: Thanks! And CCOc1ccc2cc(-c3nn(C(C)CCO)c(N)c3C(N)=O)cnc2c1 (configuration not stated) ?
Return: 1 (yes)

* * *

procedure-details: Solubility in pH 2.0 solution
measurement-parameters: pH 2.0 solution
outcome-measure: solubility

Enquiry: Give the measured solubility of CC(CCO)n1nc(-c2ccc3nc(OC4CC4)ccc3c2)c(C(N)=O)c1N (configuration not stated) .
Return: > 100 µM

Enquiry: Thanks! And CC(CCO)n1nc(-c2cnc3cc(OC4CC4)ccc3c2)c(C(N)=O)c1N (configuration not stated) ?
Return: > 100 µM

* * *

procedure-details: Protein binding in mouse plasma by dialysis method
outcome-measure: PPB (%)
The reply should be a number in %, with the unit left off.

Enquiry: Give the measured PPB of CCOc1ccc2cc(-c3nn(CC(C)(C)CO)c(N)c3C(N)=O)ccc2c1 .
Return: 92

Enquiry: Thanks! And CCOc1ccc2cc(-c3nn(C(C)(C)CCO)c(N)c3C(N)=O)ccc2c1 ?
Return: 94

Enquiry: Thanks! And CC(CCO)n1nc(-c2ccc3cc(OC4CC4)ccc3c2)c(C(N)=O)c1N (stereo not given) ?
Return: 95

Enquiry: Thanks! And CCOc1ccc2cc(-c3nn(C(C)CCO)c(N)c3C(N)=O)ccc2c1 (stereo not given) ?
Return: 71

Enquiry: Thanks! And CCOc1ccc2cc(-c3nn(C(C)(C)CO)c(N)c3C(N)=O)ccc2n1 ?
Return: 80

* * *

procedure-details: Clearance in mouse at 25 mg/kg, po
Assay type: ADME, organism-based
measurement-parameters: in vivo
outcome-measure: CL/F (mL/min)
The reply should be a number in mL/min, with the unit left off.

Enquiry: Give the measured CL/F of CCOc1ccc2cc(-c3nn(C(C)(C)CCO)c(N)c3C(N)=O)ccc2c1 .
Return: 11.1

Enquiry: Thanks! And CC(CCO)n1nc(-c2cnc3cc(OC4CC4)ccc3c2)c(C(N)=O)c1N (centres undefined) ?
Return: 0.1

Enquiry: Thanks! And CCOc1ccc2cc(-c3nn(C(C)(C)CO)c(N)c3C(N)=O)ccc2n1 ?
Return: 0.4

Enquiry: Thanks! And CCOc1ccc2cc(-c3nn(CC4CC4)c(N)c3C(N)=O)ccc2c1 ?
Return: 0.5

* * *

Assignment: determine reported solubility for the given compounds.
procedure-details: Solubility in pH 2.0 solution
measurement-parameters: buffer

Enquiry: Give the measured solubility of CCOc1ccc2cc(-c3nn(C(C)(C)CO)c(N)c3C(N)=O)cnc2c1 .
Return: > 50 µM

Enquiry: Thanks! And CCOc1ccc2cc(-c3nn(C(C)CCO)c(N)c3C(N)=O)ccc2c1 (stereo not drawn) ?
Return: > 100 µM

Enquiry: Thanks! And CC(C)(CO)Cn1nc(-c2cnc3cc(OC4CC4)ccc3c2)c(C(N)=O)c1N ?
Return: > 100 µM

* * *

procedure-details: Inhibition of Cryptosporidium parvum CDPK1 assessed as reduction in ATP consumption using BioSyntide-2 substrate incubated for 90 mins by luciferase reporter gene assay
Assignment: determine reported pIC50 for the given compounds.
Please treat pIC50 as minus the base-10 logarithm of the molar concentration.

Enquiry: Give the measured pIC50 of CC(CCO)n1nc(-c2cnc3cc(OC4CC4)ccc3c2)c(C(N)=O)c1N (stereo not drawn) .
Return: 8.70

Enquiry: Thanks! And CCOc1ccc2cc(-c3nn(C(C)(C)CO)c(N)c3C(N)=O)cnc2c1 ?
Return: 8.39

Enquiry: Thanks! And CCOc1ccc2cc(-c3nn(C(C)CCO)c(N)c3C(N)=O)ccc2c1 (stereo not drawn) ?
Return: 8.70
